# systemName: human mAChR M4 (Homo sapiens)
# Construct: expressed in transfected cells; host or cells: CHO-K1 (American Type Culture Collection), stably expressing hM4 and Gqi5
# Sequence (P08173 whole entry): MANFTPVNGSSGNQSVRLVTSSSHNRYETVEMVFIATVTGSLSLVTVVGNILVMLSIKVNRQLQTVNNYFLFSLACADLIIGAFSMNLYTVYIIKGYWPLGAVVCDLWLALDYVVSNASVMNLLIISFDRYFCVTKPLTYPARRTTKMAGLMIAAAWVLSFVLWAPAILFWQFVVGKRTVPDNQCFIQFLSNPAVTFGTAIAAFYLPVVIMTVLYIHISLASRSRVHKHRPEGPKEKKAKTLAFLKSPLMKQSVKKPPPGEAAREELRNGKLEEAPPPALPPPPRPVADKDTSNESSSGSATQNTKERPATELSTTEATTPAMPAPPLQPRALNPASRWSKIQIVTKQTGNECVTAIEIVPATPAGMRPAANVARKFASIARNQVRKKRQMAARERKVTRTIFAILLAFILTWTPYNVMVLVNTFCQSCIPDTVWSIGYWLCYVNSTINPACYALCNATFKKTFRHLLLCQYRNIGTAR
# testName: mAChR M4 cell-based functional assay: calcium mobilization (Fluo-4, FDSS), potentiation of EC20 acetylcholine response in hM4-Gqi5 CHO-K1 cells
# appliedConditions: potentiation of EC20 acetylcholine response, calcium mobilization, human M4
assayEndpoint: EC50 (nM)
Quick reminder: number only, in nM, skip the unit.

## Input Give EC50 for Cc1cc(=O)n2nc(N3CCc4ncc(-c5ccccc5C(F)(F)F)cc4C3)c(C)cc2n1
## Output 2370

## Input Give EC50 for Cc1cc2nccc(=O)n2nc1N1CCc2ncc(-c3ccc(=O)n(C)c3)cc2C1
## Output 2340

## Input Give EC50 for Cc1cc(=O)n2nc(N3CCc4ncc(-c5cccnc5)cc4C3)c(C)c(C)c2n1
## Output 1620

## Input Give EC50 for Cc1cc2nccc(=O)n2nc1N1CCc2ncc(-c3cnn(C4CC4)c3)cc2C1
## Output 308

====

# systemName: UniProt P08173
# testName: mAChR M4 cell-based functional assay: calcium mobilization (Fluo-4, FDSS), potentiation of EC20 acetylcholine response in hM4-Gqi5 CHO-K1 cells
# appliedConditions: potentiation of EC20 acetylcholine response, calcium mobilization, human M4
assayEndpoint: pEC50
Please express pEC50 as -log10 of the molar concentration.

## Input Give pEC50 for COc1cncc(-c2cnc3c(c2)CN(c2nn4c(=O)cc(C)nc4c(C)c2C)CC3)c1 [Compound 1-199]
## Output 6.28

## Input Give pEC50 for Cc1cc(=O)n2nc(N3CCc4ncc(-c5ccccc5F)cc4C3)c(C)cc2n1 [Compound 1-234]
## Output 6.63

## Input Give pEC50 for Cc1ccncc1Nc1cnc2c(c1)CN(c1nn3c(=O)ccnc3cc1C)CC2 [Compound 2-124]
## Output 6.79

## Input Give pEC50 for Cc1cc2n(n1)CCCN2c1cnc2c(c1)CN(c1nn3c(=O)cc(C(F)F)nc3cc1C)CC2 [Compound 2-28]
## Output 7.72

## Input Give pEC50 for Cc1ccc(-c2cnc3c(c2)CN(c2nn4c(=O)cc(C(F)F)nc4c(C)c2C)CC3)cc1F [Compound 1-191]
## Output 5.62

## Input Give pEC50 for Cc1cc2nccc(=O)n2nc1N1CCc2ncc(Nc3ccnn3C)cc2C1 [Compound 2-8]
## Output 6.42

## Input Give pEC50 for Cc1cc2nccc(=O)n2nc1N1CCc2ncc(Cc3cccnc3)cc2C1 [Compound 1-378]
## Output 6.05

## Input Give pEC50 for Cc1c(N2CCc3ncc(-c4cncc(Cl)c4)cc3C2)nn2c(=O)ccnc2c1C [Compound 1-144]
## Output 6.61

## Input Give pEC50 for COCc1cc(=O)n2nc(N3CCc4ncc(-c5ncc(C)cc5C)cc4C3)c(C)cc2n1 [Compound 1-381]
## Output 6.01

## Input Give pEC50 for Cc1cc(-c2cnc3c(c2)CN(c2nn4c(=O)cc(C)nc4cc2C)CC3)ccn1 [Compound 1-239]
## Output 7.01

## Input Give pEC50 for Cc1cc2nc(C(F)F)cc(=O)n2nc1N1CCc2ncc(Nc3ccncc3F)cc2C1 [Compound 2-159]
## Output 9.00

## Input Give pEC50 for Cc1c(N2CCc3ncc(N=S4(=O)CCCC4)cc3C2)nn2c(=O)ccnc2c1C [Compound 2-147]
## Output 5.91

## Input Give pEC50 for COc1cccc(C2CN(c3cnc4c(c3)CN(c3nn5c(=O)ccnc5cc3C)CC4)CCO2)c1 (stereo not shown) [Compound 2-84]
## Output 5.72

## Input Give pEC50 for Cc1cc2nc(C)c(C)c(=O)n2nc1N1CCc2ncc(C(F)(F)F)cc2C1 [Compound 1-25]
## Output 6.60

## Input Give pEC50 for COCc1cc(=O)n2nc(N3CCc4ncc(-c5ccccc5C)cc4C3)c(C)cc2n1 [Compound 1-337]
## Output 6.48

## Input Give pEC50 for Cc1cc(C(=O)O)ncc1-c1cnc2c(c1)CN(c1nn3c(=O)ccnc3cc1C)CC2 [Compound 1-406]
## Output 5.40
